MEASUREMENT TARGET: Histone deacetylase 1 (Homo sapiens)
Sequence (Q13547 whole entry): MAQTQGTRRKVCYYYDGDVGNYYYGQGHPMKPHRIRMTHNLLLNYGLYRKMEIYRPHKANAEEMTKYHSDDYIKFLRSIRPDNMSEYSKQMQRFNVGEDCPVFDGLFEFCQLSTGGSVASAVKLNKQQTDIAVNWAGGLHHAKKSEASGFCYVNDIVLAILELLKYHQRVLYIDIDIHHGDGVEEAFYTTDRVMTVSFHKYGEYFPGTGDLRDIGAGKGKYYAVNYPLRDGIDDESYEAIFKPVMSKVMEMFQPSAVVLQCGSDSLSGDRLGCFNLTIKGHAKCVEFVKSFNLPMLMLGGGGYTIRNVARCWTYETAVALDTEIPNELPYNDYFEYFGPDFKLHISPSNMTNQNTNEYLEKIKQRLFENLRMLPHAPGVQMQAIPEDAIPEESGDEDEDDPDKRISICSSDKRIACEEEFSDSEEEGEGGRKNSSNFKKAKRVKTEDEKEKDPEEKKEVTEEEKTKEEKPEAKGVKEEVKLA
PROCEDURE TEXT: Inhibition of recombinant full length C-terminal FLAG/His-tagged human HDAC1 expressed in baculovirus infected Sf9 cells using Z-Lys(Ac)-AMC as substrate incubated for 90 mins followed by trypsin addition and measured after 30 mins by fluorescence based assay
Here, each record is paired with measured IC50 data.

{"columns": ["SMILES DATA", "IC50"],
 "data": [
  ["O=C(CCN(Cc1ccc(C(=O)NO)cc1)C(=O)c1ccccc1)NCc1ccccc1", "0.134 µM"],
  ["Cc1ccc(NC(=O)CCN(Cc2ccc(C(=O)NO)cc2)C(=O)c2cc(C)cc(C)c2)cc1", "0.043 µM"],
  ["COc1ccc(C(=O)N(CCC(=O)NCc2ccccc2)Cc2ccc(C(=O)NO)cc2)cc1", "0.0419 µM"],
  ["Cc1ccc(C(=O)N(CCC(=O)NCc2ccccc2)Cc2ccc(C(=O)NO)cc2)cc1", "0.0161 µM"],
  ["CN(C)c1ccc(C(=O)N(CCC(=O)NCc2ccccc2)Cc2ccc(C(=O)NO)cc2)cc1", "0.0147 µM"],
  ["Cc1ccc(CNC(=O)CCN(Cc2ccc(C(=O)NO)cc2)C(=O)c2ccc(N(C)C)cc2)cc1", "0.0278 µM"],
  ["Cc1ccc(NC(=O)CCN(Cc2ccc(C(=O)NO)cc2)C(=O)c2ccc(N(C)C)cc2)cc1", "0.0129 µM"],
  ["CN(C)c1ccc(C(=O)N(CCC(=O)NCc2ccc(Cl)cc2)Cc2ccc(C(=O)NO)cc2)cc1", "0.0212 µM"],
  ["Cc1cc(C)cc(C(=O)N(CCC(=O)NCc2ccccc2)Cc2ccc(C(=O)NO)cc2)c1", "0.128 µM"]
]}
